Source: PubChem BioAssay

experiment notes: HUVEC growth inhibition – cell-based, human, primary screen (AID 575);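 also: 100% = median of untreated cell wells with 0.1% DMSO on each plate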
study conditions: HUVEC proliferation, CellTiter-Glo luminescence, 72 h; at 10 µM; hits give low values
reported endpoint: viability (%)
I only need the number, in %, no unit after it.

Enquiry: Tell me measured viability for `O=C(N1CCN(c2ccccc2F)CC1)C12CC3CC(CC(C3)C1)C2` please.
Return: 93.7

Enquiry: Determine its reported viability: O=C(NC1CCc2ccccc21)C1CCN(S(=O)(=O)c2ccc(-n3cnnn3)cc2)CC1 (stereo not drawn)
Return: 96.4

Enquiry: Identify the reported viability for the following entry. `Cc1cccc(-n2c(=O)cc(N3CCN(c4ccc(F)cc4)CC3)[nH]c2=O)c1`
Return: 66.5
